Test system: Human respirovirus 3
testDescription: Antiviral activity against Parainfluenza virus type 3 infected in human Hep2 cells assessed as inhibition of virus-induced cytopathogenic effect
Format: functional, organism-based
runConditions: Human respirovirus 3, HEp-2
measurementType: IC50 (µg/mL)
Express the result in µg/mL but write the number alone.

Solved entries:
CO[C@]1(C)c2ccoc2C[C@H]2C1[C@@H](OC(C)=O)[C@H](OC(C)=O)[C@@]1(O)C(C)(C)CC[C@H](OC(C)=O)[C@]21C (stereo partly specified) [CAESALMIN F]
7.8
CC(=O)O[C@@H]1[C@@H]2[C@H](Cc3occc3[C@@]2(C)O)[C@@]2(C)[C@@H](OC(C)=O)CCC(C)(C)[C@]2(O)[C@H]1OC(C)=O [CAESALMIN E]
10.3

Exercise: Which IC50 is listed for CC1(C)CC[C@H](O)[C@]2(C)[C@H]3Cc4occc4[C@H]4C(=O)O[C@@H](C[C@@]12O)[C@@H]43 [CAESALMIN G] ?
Key: 14.8

Exercise: So what does the record say about IC50 for CC(=O)O[C@@H]1[C@@H]2[C@H](Cc3occc3[C@]2(C)O)[C@@]2(C)[C@@H](OC(C)=O)CCC(C)(C)[C@]2(O)[C@H]1OC(C)=O [CAESALMIN D] ?
Key: 9.6

Exercise: Name the recorded IC50 for CC[C@H](/C=C/[C@@H](C)[C@H]1CC[C@H]2[C@@H]3CC=C4C[C@@H](O)CC[C@]4(C)[C@H]3CC[C@]12C)C(C)C [STIGMASTEROL] .
Key: 37.5

Exercise: Name the recorded IC50 for C=C1c2ccoc2C[C@H]2[C@H]1[C@@H](OC(C)=O)[C@H](OC(C)=O)[C@@]1(O)C(C)(C)CC[C@H](OC(C)=O)[C@]21C [CAESALAMIN C] .
Key: 8.2

Recorded values, source ChEMBL document CHEMBL1156352.
